# Tested on: Pharbitis purpurea
# Experiment Description: Pre-emergence herbicidal activity against PHBPU
# Format: in vivo
# Particulars: dosage 80 g/ha, scored visually after about 3 weeks vs untreated controls
Task for the reader: assign each of the following compounds its reported Pre-emergence herbicidal activity in % against PHBPU.
One number for each entry, in %.

Consider the worked cases shown below.
C=C[C@]1(C(=O)N[C@@H]2CO[C@H](C(=O)NOCC)C2)CC(c2cc(F)cc(F)c2)=NO1 (mixture of isomers)
90
C[C@]1(C(=O)N[C@@H]2CO[C@H](C(=O)NS(C)(=O)=O)C2)CC(c2cc(F)cc(F)c2)=NO1
90
C=C[C@]1(C(=O)N[C@@H]2CO[C@H](C(=O)NOC(C)C)C2)CC(c2cc(F)cc(F)c2)=NO1 (mixture of isomers)
90
C=C[C@]1(C(=O)N[C@@H]2CO[C@H](C(=O)NS(=O)(=O)C(F)(F)F)C2)CC(c2cc(F)cc(F)c2)=NO1 (mixture of isomers)
90
C=C[C@]1(C(=O)N[C@@H]2CO[C@H](C(=O)NCCC(=O)OC)C2)CC(c2cc(F)cc(F)c2)=NO1
80

Next up:
Form: compound = C=C[C@]1(C(=O)N[C@@H]2CO[C@H](C(=O)NC3CC3)C2)CC(c2cc(F)cc(F)c2)=NO1 (mixture of isomers) ; Pre-emergence herbicidal activity in % against PHBPU = 90
